Across several studies, compounds have been characterized by their IC50 on Spermidine synthase (Rattus norvegicus); a selection follows.
Molecular target: Spermidine synthase (Rattus norvegicus)
Sequence (Q99MI5 whole entry): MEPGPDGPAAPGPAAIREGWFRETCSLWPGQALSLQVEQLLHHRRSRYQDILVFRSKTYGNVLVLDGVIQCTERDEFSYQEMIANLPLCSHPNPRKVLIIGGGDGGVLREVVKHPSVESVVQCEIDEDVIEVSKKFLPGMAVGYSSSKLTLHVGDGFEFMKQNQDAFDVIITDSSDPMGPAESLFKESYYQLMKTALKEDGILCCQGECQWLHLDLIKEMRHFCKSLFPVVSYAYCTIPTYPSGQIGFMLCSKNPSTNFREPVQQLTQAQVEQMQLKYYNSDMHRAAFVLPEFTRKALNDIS

Worked cases, IC50 given:
# compound, IC50
data = [
    ("C[S+](C[C@H]1O[C@H](n2cnc3c(N)ncnc32)[C@H](O)[C@@H]1O)C(CCN)CCCCCN (stereo partly drawn)", "15 µM"),
    ("NCCCNCCCCCC(CCN)SC[C@H]1OC(n2cnc3c(N)ncnc32)[C@H](O)[C@@H]1O (stereo partly drawn)", "> 10 µM"),
]

Now for a further compound.
Task: Recall the reported IC50 of CCCNCCCCCC(CC)SC[C@H]1OC(n2cnc3c(N)ncnc32)[C@H](O)[C@@H]1O (stereo partly drawn) when tested on Spermidine synthase (Rattus norvegicus).
Output: > 500 µM
